ASSAY_TARGET: T1, human EphA1 (Homo sapiens, UniProt P21709)
T1 construct: a protein of the extracellular region of each human Eph receptor fused with the SEAP protein and the His tag; made in house; host or cells: Expi293F cells (culture supernatant)
T1 sequence (P21709 26-547 limits assumed): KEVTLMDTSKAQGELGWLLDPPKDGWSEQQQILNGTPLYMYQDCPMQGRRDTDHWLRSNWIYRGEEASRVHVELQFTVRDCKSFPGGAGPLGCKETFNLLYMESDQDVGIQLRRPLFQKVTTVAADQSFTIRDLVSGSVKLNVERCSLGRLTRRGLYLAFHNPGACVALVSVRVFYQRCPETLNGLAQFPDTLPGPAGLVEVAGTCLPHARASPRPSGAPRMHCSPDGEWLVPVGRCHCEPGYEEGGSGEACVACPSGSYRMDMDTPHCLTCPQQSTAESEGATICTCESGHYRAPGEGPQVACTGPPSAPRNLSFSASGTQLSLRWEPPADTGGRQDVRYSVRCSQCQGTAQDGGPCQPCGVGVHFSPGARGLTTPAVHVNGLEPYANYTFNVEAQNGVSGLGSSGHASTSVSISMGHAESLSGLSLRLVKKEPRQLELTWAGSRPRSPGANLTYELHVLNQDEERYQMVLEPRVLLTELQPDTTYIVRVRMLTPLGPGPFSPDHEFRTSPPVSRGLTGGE
EXPERIMENTAL_DETAILS: Selectivity ELISA of humanized antibodies for human Eph receptor
Assay type: binding
CONDITION_INFO: coated protein 1 nM
hEphA1-SEAP-: absorbance at 450 nm, percentage with respect to hEphA4-SEAP-His as 100% strictly less than 6% = yes. Otherwise no.

Qu. Please state whether hEphA1-SEAP-: absorbance at 450 nm, percentage with respect to hEphA4-SEAP-His as 100% is below 6% for 89 (antibody, V domains shown, constant regions without entry; synthetic humanized antibody light chain variable region sequence; synthetic humanized antibody heavy chain variable region sequence) VL: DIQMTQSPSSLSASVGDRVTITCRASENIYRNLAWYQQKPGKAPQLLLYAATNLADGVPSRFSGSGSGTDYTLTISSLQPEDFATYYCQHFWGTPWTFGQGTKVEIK VH: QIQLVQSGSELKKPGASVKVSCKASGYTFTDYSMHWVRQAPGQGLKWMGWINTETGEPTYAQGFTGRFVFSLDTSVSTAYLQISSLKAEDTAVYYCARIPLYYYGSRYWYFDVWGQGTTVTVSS
Ans. yes

Qu. Please state whether hEphA1-SEAP-: absorbance at 450 nm, percentage with respect to hEphA4-SEAP-His as 100% is below 6% for 136 (antibody, V domains shown, synthetic humanized antibody heavy chain variable region sequence; synthetic humanized antibody light chain variable region sequence) VH: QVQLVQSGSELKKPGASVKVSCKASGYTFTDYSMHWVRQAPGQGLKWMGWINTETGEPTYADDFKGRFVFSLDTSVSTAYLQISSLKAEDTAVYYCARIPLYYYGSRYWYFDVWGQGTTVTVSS VL: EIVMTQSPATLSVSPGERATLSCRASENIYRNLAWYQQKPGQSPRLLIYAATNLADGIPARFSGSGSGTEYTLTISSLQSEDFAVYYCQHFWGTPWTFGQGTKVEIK
Ans. yes

Qu. Please state whether hEphA1-SEAP-: absorbance at 450 nm, percentage with respect to hEphA4-SEAP-His as 100% is below 6% for 153 (antibody, V domains shown, synthetic humanized antibody heavy chain variable region sequence; synthetic humanized antibody light chain variable region sequence) VH: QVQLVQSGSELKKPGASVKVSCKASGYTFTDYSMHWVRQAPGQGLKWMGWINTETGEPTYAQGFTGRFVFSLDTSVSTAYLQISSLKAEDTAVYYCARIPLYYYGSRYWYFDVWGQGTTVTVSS VL: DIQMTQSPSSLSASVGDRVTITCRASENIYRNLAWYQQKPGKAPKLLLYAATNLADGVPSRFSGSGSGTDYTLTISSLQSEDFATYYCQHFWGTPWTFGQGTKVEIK
Ans. no

Qu. Please state whether hEphA1-SEAP-: absorbance at 450 nm, percentage with respect to hEphA4-SEAP-His as 100% is below 6% for 144 (antibody, V domains shown, synthetic humanized antibody heavy chain variable region sequence; synthetic humanized antibody light chain variable region sequence) VH: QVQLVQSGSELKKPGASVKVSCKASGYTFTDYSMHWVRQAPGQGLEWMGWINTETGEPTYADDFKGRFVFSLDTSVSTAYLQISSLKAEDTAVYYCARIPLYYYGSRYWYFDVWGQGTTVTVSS VL: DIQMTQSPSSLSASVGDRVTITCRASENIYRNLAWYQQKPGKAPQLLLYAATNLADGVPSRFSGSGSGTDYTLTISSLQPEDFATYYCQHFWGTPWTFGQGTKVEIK
Ans. yes

Qu. Please state whether hEphA1-SEAP-: absorbance at 450 nm, percentage with respect to hEphA4-SEAP-His as 100% is below 6% for 156 (antibody, V domains shown, synthetic humanized antibody heavy chain variable region sequence; synthetic humanized antibody light chain variable region sequence) VH: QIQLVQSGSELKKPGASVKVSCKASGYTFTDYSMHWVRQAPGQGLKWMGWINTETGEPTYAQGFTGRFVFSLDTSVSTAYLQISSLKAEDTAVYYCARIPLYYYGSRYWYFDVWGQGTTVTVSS VL: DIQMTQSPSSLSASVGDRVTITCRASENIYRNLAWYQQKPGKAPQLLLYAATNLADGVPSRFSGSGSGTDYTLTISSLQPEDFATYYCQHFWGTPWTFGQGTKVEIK
Ans. yes

Origin of the recorded values: patent US10428140B2
